# Experimental Protocol: Inhibition of telomerase by TRAP assay

{"Given Smiles": "COS(=O)(=O)[O-].Cc1ccc2c(c1)-c1c3c(cc(C)cc3c3cc(C)ccc3[n+]1C)N2C", "Readout Units": "nM", "IC50": 250}
{"Given Smiles": "Cc1cc2c3c([n+](C)c4ccc(F)cc4c3c1)-c1cc(F)ccc1N2C", "Readout Units": "nM", "IC50": 330}
{"Given Smiles": "CN1c2ccccc2-c2c3c1cccc3c1ccc(N(C)S(=O)(=O)c3ccc(F)cc3)cc1[n+]2C.[I-]", "Readout Units": "nM", "IC50": 730}
{"Given Smiles": "COC(=O)CCCCC(=O)Nc1ccc2c3cccc4c3c([n+](C)c2c1)-c1ccccc1N4C.[I-]", "Readout Units": "nM", "IC50": 210}
{"Given Smiles": "CN1c2ccccc2-c2c3c1cccc3c1cc(/C=C/C(=O)N3CCOCC3)ccc1[n+]2C", "Readout Units": "nM", "IC50": 370}
{"Given Smiles": "CN1c2ccccc2-c2c3c1cccc3c1ccccc1[n+]2C.[I-]", "Readout Units": "nM", "IC50": 1550}
{"Given Smiles": "CN1c2ccccc2-c2c3c1cccc3c1cc(Cl)ccc1[n+]2C.[I-]", "Readout Units": "nM", "IC50": 260}
{"Given Smiles": "CN1c2ccccc2-c2c3c1cccc3c1ccc(N)cc1[n+]2C.[I-]", "Readout Units": "nM", "IC50": 1860}
{"Given Smiles": "CC(=O)Nc1ccc2c(c1)c1cccc3c1c([n+]2C)-c1ccccc1N3C.[I-]", "Readout Units": "nM", "IC50": 410}

* * *

# Experimental Protocol: Ratio of binding constant K for G-quadruplex human telomeric sequence d[AG3(TTAGGG3) to binding constant K for salmon testis duplex genomic DNA by fluorescence titration method
compounds and their reported Ratio
Measured Quantity: Ratio

{"Given Smiles": "CC(=O)Nc1ccc2c3cccc4c3c([n+](C)c2c1)-c1ccccc1N4C.[I-]", "Measured Value": 5.9}
{"Given Smiles": "CN1c2ccccc2-c2c3c1cccc3c1ccc(N(C)S(=O)(=O)c3ccc(F)cc3)cc1[n+]2C.[I-]", "Measured Value": 2.3}
{"Given Smiles": "COC(=O)CCCCC(=O)Nc1ccc2c3cccc4c3c([n+](C)c2c1)-c1ccccc1N4C.[I-]", "Measured Value": 14.7}
{"Given Smiles": "CN1c2ccccc2-c2c3c1cccc3c1ccc(NC(=O)C(C)(C)C)cc1[n+]2C.[I-]", "Measured Value": 9.2}
{"Given Smiles": "CN1c2ccccc2-c2c3c1cccc3c1cc(Cl)ccc1[n+]2C.[I-]", "Measured Value": 6}
{"Given Smiles": "CC(=O)OCCCc1cc2c3c([n+](C)c4ccc(CCCOC(C)=O)cc4c3c1)-c1ccccc1N2C", "Measured Value": 1.7}
{"Given Smiles": "CN1c2ccccc2-c2c3c1cccc3c1ccc(NC(=O)C(F)(F)F)cc1[n+]2C.[I-]", "Measured Value": 8.6}

* * *

# Species on record: Homo sapiens
# Experimental Protocol: Binding affinity to quadruplex human telomeric sequence d[AG3(TTAGGG3) by fluorescence titration method
molecules and their reported K

{"Given Smiles": "CN1c2ccccc2-c2c3c1cccc3c1cc(/C=C/C(=O)N3CCOCC3)ccc1[n+]2C", "K": "3.2 10^5/M"}
{"Given Smiles": "COc1cc2c3c([n+](C)c4ccc(Cl)cc4c3c1)-c1ccccc1N2C.[I-]", "K": "6.4 10^5/M"}
{"Given Smiles": "COC(=O)CCCCC(=O)Nc1ccc2c3cccc4c3c([n+](C)c2c1)-c1ccccc1N4C.[I-]", "K": "10 10^5/M"}
{"Given Smiles": "CN1c2ccccc2-c2c3c1cccc3c1ccc(NC(=O)C(C)(C)C)cc1[n+]2C.[I-]", "K": "11 10^5/M"}
{"Given Smiles": "CC(=O)Nc1ccc2c(c1)c1cccc3c1c([n+]2C)-c1ccccc1N3C.[I-]", "K": "3.1 10^5/M"}
